Just for reference, paper PMC7057333 is where these values come from.

# pKd listing for each entry below
molecular target: LSD1_(172-833), lysine-specific demethylase 1 (human, UniProt O60341-1 172-833); test: SPR; LSD1 immobilised by amine coupling on CM5 (12 000-15 000 RU), peptides injected; TBS-T (25 mM Tris, 150 mM HCl as printed, 0.05% Tween-20, 1 mM DTT, pH 8.0), 15 °C; 1:1 Langmuir model or steady state; highest tested concentration 200 μM; details: both partners purified
pKd: −log10 of the molar value. Ends that are not written are not given here.

{"Binder": "ARTMQTA [H3_(1-7) K4M (peptide 6)]", "Metric name": "pKd", "Obs value": "< 3.70"}
{"Binder": "ARTMQTARK [H3_(1-9) K4M (peptide 5)]", "Metric name": "pKd", "Obs value": "< 3.70"}

Next:
Give the reported value of pKd for this record: ARTKQTARKST-NH2 [H3_(1-11) K4 (peptide 9), wild-type 11-mer]
< 4.00
